Cited source: PubChem BioAssay AID2289

Assay: qHTS Assay for Modulators of miRNAs and/or Inhibitors of miR-21
Details: HeLa miR-21-FLuc reporter, luciferase luminescence, 48 h; actives lower the signal
The campaign covered roughly 340,000 compounds. About 3,300 (0.97%) were called active. About 9% were inconclusive and are not listed. The list shows a part of the results.
MEASURED_ATTRIBUTE: Potency

{"columns": ["COMPOUND", "Potency"],
 "data": [
  ["O=C(NCc1ccccn1)C(=O)Nc1ccccc1", "6.56 µM (active)"],
  ["CC(C)CCNC(=O)C(=O)Nc1ccccc1", "2.07 µM (active)"],
  ["CSc1n[nH]c(-c2ccc(C(F)(F)F)cc2)n1", "7.36 µM (active)"],
  ["Cc1ccc2cc(CCNC(=O)c3cccs3)c(=O)[nH]c2c1", "4.14 µM (active)"],
  ["CC(CCc1ccccc1)NC(=O)C(=O)Nc1ccccc1 (configuration not stated)", "1.65 µM (active)"]
]}

Input: Bench note: what Potency did "Cn1c(SCc2c(F)cccc2Cl)nnc1-c1cnccn1" show?
Output: 4.14 µM (active)

Input: Bench note: what Potency did "CC(C)CCNC(=O)c1ccc(-c2ccccc2)cc1" show?
Output: 8.26 µM (active)

Input: Bench note: what Potency did "Cc1cccc(CCNC(=O)c2ccc3c(c2)nc2n3CCOC2)c1" show?
Output: 3.29 µM (active)

Input: Bench note: what Potency did "CCc1nn2c(=O)cc(COC(=O)c3cccs3)nc2s1" show?
Output: 9.27 µM (active)

Input: Bench note: what Potency did "CC(C)c1nn2c(=O)cc(COC(=O)c3cccs3)nc2s1" show?
Output: 8.26 µM (active)

Input: Bench note: what Potency did "COCCc1nn2c(=O)cc(COC(=O)c3ccccc3C)nc2s1" show?
Output: 10.4 µM (active)

Input: Bench note: what Potency did "COc1cccc(/C(C)=N/Nc2ncc(Cl)cc2Cl)c1" show?
Output: 16.5 µM (active)

* * *

Assay: qHTS Assay for Modulators of miRNAs and/or Inhibitors of miR-21
Details: HeLa miR-21-FLuc reporter, luciferase luminescence, 48 h; actives lower the signal
About 3,300 (0.97%) of roughly 340,000 compounds were called active. Inconclusive results (about 9%) are left out. Some of the results follow.
In this section, each of the compounds is paired with its reported Potency.

Below: 5 compounds and their reported Potency.
{"columns": ["COMPOUND_STRING", "Potency"],
 "data": [
  ["CN1N=C(C(=O)Nc2ccc3c(c2)CCC3)CCC1=O", "9.27 µM (active)"],
  ["Cn1cc(C(=O)Nc2ccc3c(c2)CCC3)cn1", "7.36 µM (active)"],
  ["Cc1ccc2oc(-c3ccc(C)c(NC(=S)NC(=O)c4cccs4)c3)nc2c1", "0.521 µM (active)"],
  ["COc1ccc(C(=O)/C=C/c2ccc(OC)cc2OC)c(O)c1", "6.56 µM (active)"],
  ["COc1ccc(NC(=S)Nc2cc(C)ccn2)c(OC)c1", "1.65 µM (active)"]
]}

Please find the next compound below.
Input: Bench note: what Potency did "Brc1ccc(/C=N/Nc2nc3ccccc3o2)cc1" show?
Output: 1.04 µM (active)

* * *

Assay: qHTS Assay for Modulators of miRNAs and/or Inhibitors of miR-21; also: potency is read from the fitted curve at half-maximal effect; nearly all actives have a fitted effect of over 55% in size
Settings: HeLa miR-21-FLuc reporter, luciferase luminescence, 48 h; actives lower the signal
The campaign covered roughly 340,000 compounds. About 3,300 (0.97%) were called active. Not shown: some 9% with an inconclusive outcome. The list shows a part of the results.
In this section, each of the molecules is paired with its reported Potency.

{"columns": ["COMPOUND_STRING", "MEASURED_ATTRIBUTE", "OBSERVED"],
 "data": [
  ["CCCNC(=O)c1cccc(COc2ccccc2OC)c1", "Potency", "2.07 µM (active)"],
  ["O=C1N=C(N2CCOCC2)S/C1=C\\C=C/c1ccccc1", "Potency", "10.4 µM (active)"],
  ["COc1ccc2nc(Nc3ccc4c(c3)OCO4)sc2c1", "Potency", "4.65 µM (active)"],
  ["CCC(=O)c1ccc(OCc2ccccc2)c(OC)c1", "Potency", "6.56 µM (active)"],
  ["COc1ccccc1OCCNC(=O)c1ccc2c(c1)CCC2", "Potency", "5.85 µM (active)"],
  ["COc1ccc2nc(Nc3nc4cc5c(cc4s3)OCCO5)sc2c1", "Potency", "13.1 µM (active)"]
]}

Please find the next molecule below.
Input: Bench note: what Potency did "COc1ccccc1OCCNC(=O)c1ccc(Br)cc1" show?
Output: 16.5 µM (active)

* * *

Experiment: qHTS Assay for Modulators of miRNAs and/or Inhibitors of miR-21; also: potency is read from the fitted curve at half-maximal effect; nearly all actives have a fitted effect of over 55% in size
Settings: HeLa miR-21-FLuc reporter, luciferase luminescence, 48 h; actives lower the signal
About 3,300 (0.97%) of roughly 340,000 compounds were called active. Roughly 9% stayed inconclusive and do not appear here. Some of the results follow.
MEASURED_ATTRIBUTE: Potency

Below: 3 compounds and their reported Potency.
{"columns": ["COMPOUND", "OBSERVED"],
 "data": [
  ["O=C(CCc1ccccc1)c1ccc2c(c1)OCCCO2", "3.69 µM (active)"],
  ["O=C(CSCc1ccccc1)N1CCN(c2ccccc2)CC1", "6.56 µM (active)"],
  ["COc1ccc(Nc2nc(C)c3ccccc3n2)cc1", "3.29 µM (active)"]
]}

Input: Bench note: what Potency did "COc1ccc(Nc2cc(C)c3ccccc3n2)cc1" show?
Output: 5.85 µM (active)

Input: Bench note: what Potency did "O=c1sc2ccccc2n1CCCOc1ccccc1" show?
Output: 4.14 µM (active)

Input: Bench note: what Potency did "CCOc1ccc(Nc2cc(C)c3ccccc3n2)cc1" show?
Output: 18.5 µM (active)

Input: Bench note: what Potency did "COc1ccc(/C=C2\Cc3ccccc3C2=O)cc1OC" show?
Output: 14.7 µM (active)

Input: Bench note: what Potency did "O=C(CCSc1ccccc1)N1CCN(c2ccccc2F)CC1" show?
Output: 7.36 µM (active)

* * *

In this section, each of the compounds is paired with its reported Potency.
Test: qHTS Assay for Modulators of miRNAs and/or Inhibitors of miR-21; also: potency is read from the fitted curve at half-maximal effect; nearly all actives have a fitted effect of over 55% in size
Conditions: HeLa miR-21-FLuc reporter, luciferase luminescence, 48 h; actives lower the signal
The whole screen tested about 340,000 compounds, of which about 3,300 (0.97%) were called active. About 9% were inconclusive and are not listed. Some of the results follow.

Input: Bench note: what Potency did "Cc1ccc(NC(=O)c2sccc2C)cc1[N+](=O)[O-]" show?
Output: 4.14 µM (active)

Input: Bench note: what Potency did "O=C(NC(=S)Nc1ccccc1[N+](=O)[O-])c1ccccc1" show?
Output: 9.27 µM (active)

Input: Bench note: what Potency did "COc1ccc(-n2ncc3c(N4CCCc5ccccc54)ncnc32)cc1" show?
Output: 0.414 µM (active)

Input: Bench note: what Potency did "Cc1nc(NC(C)C)c2cnn(CCc3ccccc3)c2n1" show?
Output: 14.7 µM (active)

Input: Bench note: what Potency did "C/C(=N/NC(=O)c1ccoc1C)c1cccc(NC(=O)C(F)(F)F)c1" show?
Output: 1.65 µM (active)

Input: Bench note: what Potency did "Nc1nnnn1/N=C/c1ccc(N2CCCCC2)c([N+](=O)[O-])c1" show?
Output: 16.5 µM (active)

Input: Bench note: what Potency did O=C(NCC1CCCO1)c1cc(-c2ccccc2)on1 (centres undefined) show?
Output: 7.36 µM (active)

Input: Bench note: what Potency did "N/C(=N\OC(=O)c1ccc2c(c1)OCO2)c1cccnc1" show?
Output: 3.69 µM (active)

Input: Bench note: what Potency did "C/C(=N/NC(=O)c1ccoc1C)c1ccc(NC(=O)C2CCCC2)cc1" show?
Output: 1.31 µM (active)

Input: Bench note: what Potency did "O=C(NC1CCCC1)c1cc(-c2ccccc2)on1" show?
Output: 2.93 µM (active)

Input: Bench note: what Potency did "CNC(=O)c1c(NC(=O)c2nc3ccccc3s2)sc2c1CCC2" show?
Output: 1.31 µM (active)

Input: Bench note: what Potency did "N=C1C(c2nc3ccccc3[nH]2)=C(O)CN1c1ccc(F)cc1" show?
Output: 14.7 µM (active)

Input: Bench note: what Potency did "O=C(CCc1ccccc1)Nc1ccccc1[N+](=O)[O-]" show?
Output: 14.7 µM (active)

Input: Bench note: what Potency did "O=C1C(C=NCCN2CCOCC2)=C(O)c2ccccc21" show?
Output: 8.26 µM (active)

* * *

Assay: qHTS Assay for Modulators of miRNAs and/or Inhibitors of miR-21; also: potency is read from the fitted curve at half-maximal effect; nearly all actives have a fitted effect of over 55% in size
Settings: HeLa miR-21-FLuc reporter, luciferase luminescence, 48 h; actives lower the signal
In all, about 340,000 compounds went through this assay and about 3,300 (0.97%) were called active. Not shown: some 9% with an inconclusive outcome. Some of the results follow.
MEASURED_ATTRIBUTE: Potency

Below: 4 molecules and their reported Potency.
{"columns": ["MOLECULE", "MEASURED_ATTRIBUTE", "OBSERVED"],
 "data": [
  ["CC12COC3(C(=O)Nc4ccc5ccccc5c4)CC1CCC32C (centres undefined)", "Potency", "7.36 µM (active)"],
  ["O=C(NCc1ccccc1)c1cccc(COc2ccc3c(c2)CCC3)c1", "Potency", "0.585 µM (active)"],
  ["COc1ccc(-n2cc(-c3ccccc3)nc2SC)cc1", "Potency", "8.26 µM (active)"],
  ["O=C(O)c1ccc(/C=C/c2ccc3cccc(O)c3n2)cc1", "Potency", "4.14 µM (active)"]
]}

Input: Bench note: what Potency did "O=[N+]([O-])c1cccc2ccc(/C=C/c3ccc(F)cc3)nc12" show?
Output: 7.36 µM (active)

Input: Bench note: what Potency did "CCOc1ccc(-c2cn3nc(CC(C)C)sc3n2)cc1" show?
Output: 2.93 µM (active)

Input: Bench note: what Potency did C/C(=N\O)c1ccc(N2C(=O)C3CC=C(Cl)CC3C2=O)cc1 (centres undefined) show?
Output: 3.29 µM (active)

Input: Bench note: what Potency did "COc1cccc(NCCC(=O)c2cccc([N+](=O)[O-])c2)c1" show?
Output: 13.1 µM (active)

Input: Bench note: what Potency did "Nc1nc2ccc(NC(=O)c3ccco3)cc2s1" show?
Output: 7.36 µM (active)
